Test system: UACC-257 melanoma
method_notes: NCI-60 one-dose screen, 48 h (100 = growth as untreated, 0 = no growth, -100 = all killed)
cond: 10 µM
The panel holds about 83,000 compounds, 20% with a hit somewhere; the sample as a whole holds those more often.
growth reference
Answer with a number only, understood to be in %.

molecule | target_system | growth (%)
OC(c1ccccn1)C(O)c1ccccn1 (configuration not stated) | UACC-257 melanoma | 102
OCc1ccc(-c2ccc(-c3ccc(CO)s3)o2)s1 | UACC-257 melanoma | 32.5
CCCNc1ccc(C2=NCCCN2)cc1 | UACC-257 melanoma | 99.8
CC(=O)OCC1OC(OC2=C(CC=C(C)C)C(=O)c3ccccc3C2=O)C(OC(C)=O)C(OC(C)=O)C1OC(C)=O (configuration not stated) | UACC-257 melanoma | 20.6

// moving on: another record for growth
Value of growth reported for the molecule "NC(=O)NC(=O)c1ccc(Cl)cc1" is 107

###

Test system: SF-539 CNS
method_notes: NCI-60 one-dose screen, 48 h (100 = growth as untreated, 0 = no growth, -100 = all killed)
cond: 10 µM
About 83,000 compounds went through this panel and 20% of them were active in at least one assay; those are over-represented in the sample as a whole.
readout: growth (%)
Unit % implied. Number only.

compound_structure | readout_value
C/C(=N\NC(=O)c1ccccc1N)c1ccccc1O | 32.5

The compound identified as "C#CCSc1nnnn1-c1ccc(Br)c(C)c1" registered its growth at 89

Measured growth, "COCCCNC(=O)c1nnn2c1nc(N)c1cc(Cl)ccc12" : 94

Lab note: "COC(=O)c1ccccc1N(C)C" gave growth of 115

Lab book: growth of "O=[N+]([O-])c1ccc(-c2ncc(-c3ccc(Br)cc3)o2)cc1" noted as 101

###

Tested on: RPMI-8226 leukemia
method_notes: NCI-60 one-dose screen, 48 h (100 = growth as untreated, 0 = no growth, -100 = all killed)
cond: 10 µM
The panel holds about 83,000 compounds, 20% with a hit somewhere; the sample as a whole holds those more often.
# growth annotations
Kindly answer with a numeric value in %, unit omitted.

Examples from the recorded data:
compound | readout | readout_value
Cc1ccc(N)cc1[N+](=O)[O-] | growth | 116
O=[N+]([O-])c1ccccc1S(=O)c1ccccc1[N+](=O)[O-] | growth | 84.5

Read the next record carefully.
get_value(item= COC(=O)C(O)c1ccccc1 (stereo not drawn) , readout=growth) returns 111

###

Tested on: SF-539 CNS
method_notes: NCI-60 one-dose screen, 48 h (100 = growth as untreated, 0 = no growth, -100 = all killed)
cond: 10 µM
This is part of a sample that, as a whole, favours compounds with a hit. Of some 83,000 tested, about 20% had one in any assay. Active and inactive are the calls of the source. The calls were made as follows: active = growth percent below 10; inactive = the rest.
readout: growth

compound | growth
CC(C)C1CCCCC1O (stereo unspecified) | 101% (inactive)
O=c1c2ccccc2c(Br)c(Br)c2ccccc12 | 98.6% (inactive)
CC1(c2ccccc2)NC(=O)NC1=O (stereo unspecified) | 117% (inactive)
C/C(O)=C(\C=N\C(N)=S)C(=O)Nc1ccccc1 | 114% (inactive)
C=CC(O)CCC (stereo unspecified) | 102% (inactive)

"O=C(CC(=O)c1ccccc1O)c1ccccc1" yielded growth of 95.5% (inactive)

Briefly, growth measured for "CC(=O)CC(=O)N(C)C" : 97.6% (inactive)

According to the records, this compound "O=C(O)CCCCNC(=O)c1ccccc1" displays growth of 99.8% (inactive)

Recorded growth (compound CC(CC(=O)c1ccccc1)c1ccccc1 (stereo unspecified) ): 105% (inactive)

###

Below is a list of entries, each paired with its recorded growth value.
Tested on: KM12 colon
method_notes: NCI-60 one-dose screen, 48 h (100 = growth as untreated, 0 = no growth, -100 = all killed)
cond: 10 µM
The panel holds about 83,000 compounds, 20% with a hit somewhere; the sample as a whole holds those more often.
Quick reminder: number only, in %, skip the unit.

Sample answers from the record:
molecule | readout | readout_value
Cn1cnc2nc(Cl)nc(Cl)c21 | growth | -40.8
COc1cccc(COC(=O)Nc2ccccc2)c1OC | growth | 106
COc1ccc(C)cc1OC | growth | 105
CCCCNC1(C#N)CCN(Cc2ccccc2)CC1 | growth | 144
COc1ccccc1N=Nc1c(O)ccc2cc(S(=O)(=O)O)ccc12 | growth | 104
O=C1C=C(Nc2ccc([N+](=O)[O-])cc2)c2ccccc2C1=O | growth | 32.4
COC(=O)C(O)c1ccccc1 (stereo not drawn) | growth | 106

Please turn your attention to the following entry.
// growth value for "CC(=O)c1ccc(C)c(N)c1" : 97

###

Tested on: UACC-257 melanoma
method_notes: NCI-60 one-dose screen, 48 h (100 = growth as untreated, 0 = no growth, -100 = all killed)
cond: 10 µM
The panel holds about 83,000 compounds, 20% with a hit somewhere; the sample as a whole holds those more often.
readout: growth (%)
Write down the numeric answer in % and omit the unit.

The reported UACC-257 melanoma growth of "COc1cc(-c2ccc(NC(=O)NC3CC3)c(OC)c2)ccc1NC(=O)NC1CC1" is 26.5

Entry "O=C(CS)Nc1ccc2ccccc2c1" under UACC-257 melanoma had growth of 133

UACC-257 melanoma assay, compound "CC(C)COC(=O)COC(=O)OCCOCCOC(=O)OCC(=O)OCC(C)C" , recorded growth = 103

Observed growth on UACC-257 melanoma, entry "C=CC(=O)OCCCCCCCC" , equals 96.7

Measured on UACC-257 melanoma, "O=C(CCl)N1CCN(C/C=C/c2ccccc2)CC1" has a documented growth of 85.8

// compound "CCOc1ccc(/C=C/C(=O)c2ccccc2)cc1" , assay UACC-257 melanoma, growth value: 97.7

# "Cc1cc(C)c(N)c(S(=O)(=O)O)c1" with UACC-257 melanoma: growth is 122

Noted growth for "Cc1ccc(C(=O)c2ccccc2)c(C)c1" , tested on UACC-257 melanoma: 112

Known value: UACC-257 melanoma growth of the compound "OCc1cccc2ccccc12" equals 109

Recorded growth for "NNc1ccccc1C(=O)O" on UACC-257 melanoma was 103

Tested on UACC-257 melanoma: "CCOC(=O)c1ccc(Nc2sc(C(=O)c3cccc([N+](=O)[O-])c3)c(N)c2C#N)cc1" . Observed growth: 17.4

###

Tested on: SF-539 CNS
method_notes: NCI-60 one-dose screen, 48 h (100 = growth as untreated, 0 = no growth, -100 = all killed)
cond: 10 µM
About 83,000 compounds went through this panel and 20% of them were active in at least one assay; those are over-represented in the sample as a whole.
readout: growth (%)
// return numeric value only (unit: %, not printed)

"CCN1C(=O)/C(=C/C=C/N(C)c2ccccc2)SC1=S" on SF-539 CNS gives growth = 92.3

Result for "CCOc1ccc2[nH]c(=S)sc2c1" , tested on SF-539 CNS, growth: 106

Field growth (system: SF-539 CNS) for entry "CN(C)c1ccc2nc3ccc(=N)cc-3sc2c1" = -11.3

Form field, growth with SF-539 CNS, item "CN(C)C(C)(C)CC(C)(C)C" : 94.1

Lab entry: SF-539 CNS assay, compound "CCCCCCCCOC(=O)c1ccccn1" , growth = 96.9

###

Tested on: SF-539 CNS
method_notes: NCI-60 one-dose screen, 48 h (100 = growth as untreated, 0 = no growth, -100 = all killed)
cond: 10 µM
Compounds without any hit were thinned out: in the full panel of roughly 83,000, 20% have a hit. The source made the active and inactive calls. The calls were made as follows: active = growth percent below 10; inactive = the rest.
Listed next: entries and their corresponding growth.

Sample records with growth:
molecule | readout_value
CCCCCCCO | 89.5% (inactive)
CCc1ccc(/C(C#N)=C/C=C/c2ccccc2)cc1 | 18.6% (inactive)
O=[N+]([O-])c1ccc(/C=C/C=C/c2ccccc2)c(Cl)c1 | 99% (inactive)

GET /value?item= "COC(=O)Nc1nc2ccc(C(=O)c3ccc(F)cc3)cc2[nH]1" &field=growth returns -21.8% (active)

growth measured on "N#Cc1ccc(OC(=O)Nc2ccc(Cl)c(Cl)c2)cc1" = 91.5% (inactive)

Lab note: "O=C(Nc1ccccc1C(=O)NCC1CC1)c1cccs1" gave growth of 101% (inactive)

Summary for this molecule, C#CC(C(C)C)N(CCO)CCCC (configuration not stated) : growth is 90.4% (inactive)

Value of growth reported for the molecule "CC(=O)NC(N)=S" is 107% (inactive)

# growth (molecule: "CCCCOC(OCCCC)c1ccccc1" ) is 91.8% (inactive)

Value of measured growth for the entry "COC(=O)c1cc(-c2ccc(Cl)c(Cl)c2)[nH]c(=O)c1C#N" : 101% (inactive)

Looking up "COc1ccc(C)cc1OC" , I see its growth listed as 109% (inactive)

For record CCCCC(O)c1ccccc1 (configuration not stated) the listed growth is 106% (inactive)
